Tested on: ACHN
EXPERIMENT: Growth inhibition of human ACHN cells after 48 hrs by sulforhodamine B assay
Assay type: functional
Decide using GI50 alone. Strictly below 10 µM: TRUE. Equal to or above 10 µM: FALSE.

{"MOL": "CC(=O)Nc1ccc(CCCC[C@@H]2C[C@@H]3C[C@@]4(O[C@H](CCC4(C)C)CC(=O)O[C@@H](CO)CC(=O)O3)O2)cc1O", "TARGET_OF_ASSAY": "ACHN", "GROUP_LABEL": "FALSE"}
{"MOL": "CC(=O)Nc1ccc(O)cc1CCCC[C@@H]1C[C@@H]2C[C@@]3(O[C@H](CCC3(C)C)CC(=O)O[C@@H](CO)CC(=O)O2)O1", "TARGET_OF_ASSAY": "ACHN", "GROUP_LABEL": "FALSE"}

Regarding CC1(C)CC[C@@H]2CC(=O)O[C@@H](CO)CC(=O)O[C@@H]3C[C@@H](CCCCc4cc(O)ccc4Br)O[C@@]1(C3)O2 , kindly confirm whether its GI50 is beneath 10 µM.
TRUE

* * *

Test system: Human gammaherpesvirus 4
EXPERIMENT: Induction of EBV-early antigen expressed in human Raji cells at 10^-7 M after 48 hrs by immunofluorescence assay relative to control
Format: organism-based
RUN_CONDITIONS: human gammaherpesvirus 4, raji, 0.1 µM
QUANTITY_KIND: Activity
Answer as a quantity: numeral, then unit.

{"MOL": "CC1(C)CC[C@@H]2CC(=O)O[C@@H](CO)CC(=O)O[C@@H]3C[C@@H](CCCCc4cc(O)ccc4Br)O[C@@]1(C3)O2", "EXPERIMENTAL_RESULT": "1.8%"}
{"MOL": "CC(=O)Nc1ccc(CCCC[C@@H]2C[C@@H]3C[C@@]4(O[C@H](CCC4(C)C)CC(=O)O[C@@H](CO)CC(=O)O3)O2)cc1O", "EXPERIMENTAL_RESULT": "2.4%"}
{"MOL": "CC(=O)Nc1ccc(O)cc1CCCC[C@@H]1C[C@@H]2C[C@@]3(O[C@H](CCC3(C)C)CC(=O)O[C@@H](CO)CC(=O)O2)O1", "EXPERIMENTAL_RESULT": "2%"}
{"MOL": "CC1(C)CC[C@@H]2CC(=O)O[C@@H](CO)CC(=O)O[C@@H]3C[C@@H](CCCCc4cc(O)c(Br)cc4Br)O[C@@]1(C3)O2", "EXPERIMENTAL_RESULT": "2%"}
{"MOL": "CC1(C)CC[C@@H]2CC(=O)O[C@@H](CO)CC(=O)O[C@@H]3C[C@@H](CCCCc4cc(O)ccc4I)O[C@@]1(C3)O2", "EXPERIMENTAL_RESULT": "1.3%"}

Which Activity value belongs to CC1(C)CC[C@@H]2CC(=O)O[C@@H](CO)CC(=O)O[C@@H]3C[C@@H](CCCCc4ccc(I)c(O)c4)O[C@@]1(C3)O2 ?
2.1%

* * *

EXPERIMENT: Cytotoxicity against human Raji cells assessed as cell viability at 10^-6 M
Assay type: cell-based
RUN_CONDITIONS: read-out: Activity
# viability at 1 µM annotations
Kindly provide the numeric value in % only, without the unit symbol.

// worked examples, viability at 1 µM included
{"MOL": "CC1(C)CC[C@@H]2CC(=O)O[C@@H](CO)CC(=O)O[C@@H]3C[C@@H](CCCCc4cc(O)ccc4Br)O[C@@]1(C3)O2", "READOUT_UNITS": "%", "viability at 1 µM": 40}
{"MOL": "CC1(C)CC[C@@H]2CC(=O)O[C@@H](CO)CC(=O)O[C@@H]3C[C@@H](CCCCc4cc(O)ccc4I)O[C@@]1(C3)O2", "READOUT_UNITS": "%", "viability at 1 µM": 50}
{"MOL": "CC(=O)Nc1ccc(O)cc1CCCC[C@@H]1C[C@@H]2C[C@@]3(O[C@H](CCC3(C)C)CC(=O)O[C@@H](CO)CC(=O)O2)O1", "READOUT_UNITS": "%", "viability at 1 µM": 60}
{"MOL": "COc1cccc(CCCC[C@@H]2C[C@@H]3C[C@@]4(O[C@H](CCC4(C)C)CC(=O)O[C@@H](CO)CC(=O)O3)O2)c1", "READOUT_UNITS": "%", "viability at 1 µM": 60}

Which viability at 1 µM value belongs to CC(=O)Nc1ccc(CCCC[C@@H]2C[C@@H]3C[C@@]4(O[C@H](CCC4(C)C)CC(=O)O[C@@H](CO)CC(=O)O3)O2)cc1O ?
60

* * *

System: MKN-45
EXPERIMENT: Growth inhibition of human MKN45 cells after 48 hrs by sulforhodamine B assay
Type: functional
RUN_CONDITIONS: MKN-45, 48 h
Decide using GI50 alone. Strictly below 10 µM: condition met. Equal to or above 10 µM: condition not met.

Consider the worked cases shown below.
{"MOL": "CC(=O)Nc1ccc(O)cc1CCCC[C@@H]1C[C@@H]2C[C@@]3(O[C@H](CCC3(C)C)CC(=O)O[C@@H](CO)CC(=O)O2)O1", "GROUP_LABEL": "condition not met"}
{"MOL": "CC1(C)CC[C@@H]2CC(=O)O[C@@H](CO)CC(=O)O[C@@H]3C[C@@H](CCCCc4cc(O)ccc4Br)O[C@@]1(C3)O2", "GROUP_LABEL": "condition met"}
{"MOL": "CC1(C)CC[C@@H]2CC(=O)O[C@@H](CO)CC(=O)O[C@@H]3C[C@@H](CCCCc4ccc(I)c(O)c4)O[C@@]1(C3)O2", "GROUP_LABEL": "condition not met"}
{"MOL": "CC1(C)CC[C@@H]2CC(=O)O[C@@H](CO)CC(=O)O[C@@H]3C[C@@H](CCCCc4cc(O)c(Br)cc4Br)O[C@@]1(C3)O2", "GROUP_LABEL": "condition met"}
{"MOL": "CC(=O)Nc1ccc(CCCC[C@@H]2C[C@@H]3C[C@@]4(O[C@H](CCC4(C)C)CC(=O)O[C@@H](CO)CC(=O)O3)O2)cc1O", "GROUP_LABEL": "condition not met"}
{"MOL": "CC1(C)CC[C@@H]2CC(=O)O[C@@H](CO)CC(=O)O[C@@H]3C[C@@H](CCCCc4cc(O)ccc4I)O[C@@]1(C3)O2", "GROUP_LABEL": "condition not met"}

Regarding CC1(C)CC[C@@H]2CC(=O)O[C@@H](CO)CC(=O)O[C@@H]3C[C@@H](CCCCc4c(Br)cc(Br)c(O)c4Br)O[C@@]1(C3)O2 , kindly confirm whether its GI50 is beneath 10 µM.
condition not met

Regarding COc1cccc(CCCC[C@@H]2C[C@@H]3C[C@@]4(O[C@H](CCC4(C)C)CC(=O)O[C@@H](CO)CC(=O)O3)O2)c1 , kindly confirm whether its GI50 is beneath 10 µM.
condition met

* * *

Tested on: SK-OV-3
EXPERIMENT: Growth inhibition of human SKOV3 cells after 48 hrs by sulforhodamine B assay
Type: functional
RUN_CONDITIONS: SK-OV-3, 48 h
# GI50 annotations
Kindly provide the numeric value in µM only, without the unit symbol.

{"MOL": "COc1cccc(CCCC[C@@H]2C[C@@H]3C[C@@]4(O[C@H](CCC4(C)C)CC(=O)O[C@@H](CO)CC(=O)O3)O2)c1", "READOUT_UNITS": "µM", "GI50": 16.2}
{"MOL": "CC1(C)CC[C@@H]2CC(=O)O[C@@H](CO)CC(=O)O[C@@H]3C[C@@H](CCCCc4c(Br)cc(Br)c(O)c4Br)O[C@@]1(C3)O2", "READOUT_UNITS": "µM", "GI50": 32.4}

Which GI50 value belongs to CC1(C)CC[C@@H]2CC(=O)O[C@@H](CO)CC(=O)O[C@@H]3C[C@@H](CCCCc4cc(O)ccc4I)O[C@@]1(C3)O2 ?
15.8

* * *

# viability at 0.1 µM annotations
EXPERIMENT: Cytotoxicity against human Raji cells assessed as cell viability at 10^-7 M
Type: cell-based
RUN_CONDITIONS: read-out: Activity
Kindly provide the numeric value in % only, without the unit symbol.

Which viability at 0.1 µM value belongs to CC1(C)CC[C@@H]2CC(=O)O[C@@H](CO)CC(=O)O[C@@H]3C[C@@H](CCCCc4cc(O)ccc4Br)O[C@@]1(C3)O2 ?
50

Which viability at 0.1 µM value belongs to CC1(C)CC[C@@H]2CC(=O)O[C@@H](CO)CC(=O)O[C@@H]3C[C@@H](CCCCc4cc(O)c(Br)cc4Br)O[C@@]1(C3)O2 ?
40

Which viability at 0.1 µM value belongs to CC1(C)CC[C@@H]2CC(=O)O[C@@H](CO)CC(=O)O[C@@H]3C[C@@H](CCCCc4c(Br)cc(Br)c(O)c4Br)O[C@@]1(C3)O2 ?
40

Which viability at 0.1 µM value belongs to CC(=O)Nc1ccc(O)cc1CCCC[C@@H]1C[C@@H]2C[C@@]3(O[C@H](CCC3(C)C)CC(=O)O[C@@H](CO)CC(=O)O2)O1 ?
60
